Listed compounds paired with reported α-helix contents
biological target: human serum albumin (HSA) (Homo sapiens, UniProt P02768); test: Circular dichroism spectrum, secondary structure (α-helix content) of HSA; settings: 10:1 (Pesticide:HSA), HSA 2×10^−6 M
Sequence (P02768 25-609): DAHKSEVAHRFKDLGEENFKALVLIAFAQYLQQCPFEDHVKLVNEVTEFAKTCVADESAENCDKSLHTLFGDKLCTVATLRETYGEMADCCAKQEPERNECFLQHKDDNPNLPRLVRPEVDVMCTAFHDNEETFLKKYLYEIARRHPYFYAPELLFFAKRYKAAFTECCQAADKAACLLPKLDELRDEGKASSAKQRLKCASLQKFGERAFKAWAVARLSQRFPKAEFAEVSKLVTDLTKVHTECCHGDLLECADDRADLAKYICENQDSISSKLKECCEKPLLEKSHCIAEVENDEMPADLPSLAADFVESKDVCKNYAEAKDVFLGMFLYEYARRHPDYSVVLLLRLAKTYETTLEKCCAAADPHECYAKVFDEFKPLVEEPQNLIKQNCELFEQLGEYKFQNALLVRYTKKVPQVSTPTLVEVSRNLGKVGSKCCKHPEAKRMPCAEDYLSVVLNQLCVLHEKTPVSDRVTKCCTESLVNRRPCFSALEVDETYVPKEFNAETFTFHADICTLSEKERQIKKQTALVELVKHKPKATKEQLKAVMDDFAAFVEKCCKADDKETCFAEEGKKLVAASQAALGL
Numbers only here, please. The scale is %.

[in] Query: α-helix contents; subject: CNC(=O)O/N=C(\CS(C)(=O)=O)C(C)(C)C
[out] 50.482

[in] Any idea what its α-helix contents is? The compound is CNC(=O)Oc1cc(C)cc(C)c1 [XMC, 3,5-xylyl methylcarbamate]
[out] 54.416

[in] Which value of α-helix contents has been reported for CCSCc1ccccc1OC(=O)NC in the records?
[out] 48.340

[in] Requested field: α-helix contents. Item: CNC(=O)Oc1cccc2c1OC(C)(C)C2
[out] 48.304

Next compound, α-helix contents to be filled in.
[in] Field request: α-helix contents | item: CNC(=O)Oc1ccccc1OC(C)C
[out] 49.341
